- Assay: in vitro
- Condition Details: cattle (Bos taurus)
Measurement Label: CC50

Query block: Reported CC50 for Nc1nc(=O)n2ccn([C@@H]3O[C@H](CO)[C@@H](O)[C@H]3O)c2n1 : what is it?
Result block: > 100 µM
